Reported log10 koff values are given for each entry in this list.
- assay-target: T1, human CD8A-Fc (recombinant human CD8 alpha fused to Fc fragment of human IgG1) (human, UniProt P01732 22-182, limits assumed)
- T1 construct: SPR ligand, captured by goat anti-human Fc; also called hCD8A-Fc; recombinant CD8 alpha; not shown: linker with flag (and polyhistidine) tag and Fc fragment of human IgG1; depends on which of the two constructs was used
- T1 sequence (P01732 22-182 limits assumed): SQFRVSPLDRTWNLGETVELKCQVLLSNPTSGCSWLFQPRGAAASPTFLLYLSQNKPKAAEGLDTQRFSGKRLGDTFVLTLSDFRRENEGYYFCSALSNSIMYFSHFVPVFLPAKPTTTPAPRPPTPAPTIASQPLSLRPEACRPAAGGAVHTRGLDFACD
- experiment-summary: SPR, dissociation rate on recombinant CD8 alpha
Form field - Quantity: koff; Unit: s⁻¹; Scale: log10

Example results:
[[record]]
binder = "P282DR9P1359_G7 (designed binder, FN3 domain (Centyrin); purified as His-tagged protein, tag not in the entry) LPAPKNLVVSRVTEDSARLSWTAPDAAFDSFAITYIEKEHIEDGEAIVLTVPGSERSYDLTGLKPGTEYWVPIWGVKGGANSWPLSAIFTT"
reported = -4.97

[[record]]
binder = "P282DR9P1359_F7 (designed binder, FN3 domain (Centyrin); purified as His-tagged protein, tag not in the entry) LPAPKNLVVSRVTEDSARLSWTAPDAAFDSFAIAYPEWPPQGEAIVLTVPGSERSYDLTGLKPGTEYFVVIYGVKGGSYSAPLSAIFTT"
reported = -3.47

[[record]]
binder = "CD8S401 (designed binder, W38I mutant of P282DR9P1359_C5; the entry holds the mutation) LPAPKNLVVSRVTEDSARLSWTAPDAAFDSFWITYPEIPDPGGEAIVLTVPGSERSYDLTGLKPGTEYFVVIYGVKGGEIYSPLSAIFTT"
reported = -1.90

[[record]]
binder = "CD8S397 (designed binder, W32Q mutant of P282DR9P1359_C5; the entry holds the mutation) LPAPKNLVVSRVTEDSARLSWTAPDAAFDSFQITYPEWPDPGGEAIVLTVPGSERSYDLTGLKPGTEYFVVIYGVKGGEIYSPLSAIFTT"
reported = -3.18


// moving on: another record for log10 koff
Kindly note the recorded log10 koff for P282ER9P1360_C8 (designed binder, FN3 domain (Centyrin); purified as His-tagged protein, tag not in the entry) LPAPKNLVVSRVTEDSARLSWTAPDAAFDSFGILYYEPVDSGEAITLPVPGSERSYDLTGLKPGTEYWVVITGVKGGAPSTPLGTIFTT , which is -3.75
